- subjectOfTest: full-length WT STING (Homo sapiens, UniProt Q86WV6, H232R)
- Construct: AviTag (after gg linker) (C); HRV3C cleavage site (after gs linker) (C); HIS8 (C); made in house; host or cells: Trichoplusia ni (Hi-Five) insect cells infected with baculovirus (virus generated and amplified in Sf21 cells); used as a washed membrane preparation
- Sequence (Q86WV6 with tags, fused parts or gaps H232R): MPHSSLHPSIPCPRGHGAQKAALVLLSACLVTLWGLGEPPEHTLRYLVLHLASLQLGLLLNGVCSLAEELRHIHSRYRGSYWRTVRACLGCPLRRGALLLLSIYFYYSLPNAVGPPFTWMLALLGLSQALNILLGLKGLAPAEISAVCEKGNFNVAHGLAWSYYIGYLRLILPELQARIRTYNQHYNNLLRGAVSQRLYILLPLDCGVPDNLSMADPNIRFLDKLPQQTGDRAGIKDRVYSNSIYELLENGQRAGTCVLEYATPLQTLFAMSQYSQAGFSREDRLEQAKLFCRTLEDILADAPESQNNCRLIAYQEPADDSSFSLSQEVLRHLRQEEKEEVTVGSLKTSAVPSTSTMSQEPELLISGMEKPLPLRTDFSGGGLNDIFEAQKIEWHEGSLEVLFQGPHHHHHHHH
- assayComment: 3H-cGAMP filtration binding assay (WT STING)
- testSettings: at 2,000 nM compound
Give Met when the value for inhibition at 2 µM is at least 30%. Give Not met when it is less.

hey, is inhibition at 2 µM for this one >= 30%? COc1cc2sc(CC[C@H](C)C(=O)O)cc2cc1OCCCOc1c(O)cc2sc(C(=O)C[C@H](C)C(=O)O)cc2c1Cl
Not met

hey, is inhibition at 2 µM for this one >= 30%? COc1cc2sc(CC[C@H](C)C(=O)O)cc2cc1OCCCOc1c(OC)cc2sc(C(=O)C[C@H](C)C(=O)O)cc2c1Cl
Met

hey, is inhibition at 2 µM for this one >= 30%? COc1cc2sc(CC[C@H](C)C(=O)O)cc2cc1OCCCOc1c(OC)cc2sc(C(=O)C[C@H](C)C(=O)O)cc2c1Br
Not met

hey, is inhibition at 2 µM for this one >= 30%? COc1cc2sc(CC[C@H](C)C(=O)O)cc2c(Cl)c1OCCCOc1c(OC)cc2sc(C(=O)C[C@H](C)C(=O)O)cc2c1Cl
Not met

Data origin: patent US10793557B2
